Below, each entry is listed alongside its reported selectivity ratio.
test system: porcine rotavirus KJ205 (G5P[7]); assay: CPE inhibition effect, porcine rotavirus KJ205 (TF-104 cells treated after virus inoculation); type: cell-based; settings: rhesus monkey, read-out: S.I. (selective index, CC50/EC50)
PROPERTY LABEL: selectivity ratio

                                        mol                       test_target   val
0         O=C(/C=C/c1ccc(O)cc1)c1ccc(O)cc1O  porcine rotavirus KJ205 (G5P[7])   3.9
1  COc1c(CC=C(C)C)c(O)cc2oc(-c3ccc(O)cc3O)cc12  porcine rotavirus KJ205 (G5P[7])   2.3
2        COc1cc(O)ccc1C(=O)/C=C/c1ccc(O)cc1  porcine rotavirus KJ205 (G5P[7])  11.7

---

Below, each entry is listed alongside its reported EC50.
test system: porcine rotavirus KJ205 (G5P[7]); assay: Virucidal effect against porcine rotavirus KJ205 (sample pre-reacted with virus, neutral red readout in TF-104 cells); assay type: cell-based; conditions: Virucidal effect, KJ205 (G5P[7]), TF-104 cells
PROPERTY LABEL: EC50 (µM)

In [3]: df
Out[3]:
                                   compound  property_label   val
0  COc1c(CC=C(C)C)c(O)cc2c1CC(c1ccc(O)cc1O)CO2 (centres unmarked)            EC50  18.7
1  COc1c(CC=C(C)C)c(O)cc2oc(-c3ccc(O)cc3O)cc12            EC50  26.1

---

tested on: bovine rotavirus NCDV (G6P[1]); test: Virucidal effect against bovine rotavirus NCDV (sample pre-reacted with virus, neutral red readout in TF-104 cells); type: cell-based; conditions: rhesus monkey, read-out: S.I. (selective index, CC50/EC50)
PROPERTY LABEL: selectivity ratio

>>> df
                                   molecule                     test_target  val
0  COc1c(CC=C(C)C)c(O)cc2c1CC(c1ccc(O)cc1O)CO2 (stereo not shown)  bovine rotavirus NCDV (G6P[1])  1.5

---

Below, each entry is listed alongside its reported EC50.
system: porcine rotavirus KJ205 (G5P[7]); assay: CPE inhibition effect, porcine rotavirus KJ205 (TF-104 cells treated after virus inoculation); type: cell-based; conditions: TF-104 cells
PROPERTY LABEL: EC50 (µM)

>>> df
                                   molecule  property_label   val
0  COc1cc(O)ccc1C(=O)/C=C/c1ccc(O)cc1 [Compound 2, 2-methoxyisoliquiritigenin]            EC50    24
1  COc1c(CC=C(C)C)c(O)cc2oc(-c3ccc(O)cc3O)cc12 [Compound 3, licocoumarone]            EC50  26.1
2  O=C(/C=C/c1ccc(O)cc1)c1ccc(O)cc1O [Compound 1, isoliquiritigenin]            EC50  35.3

---

test system: bovine rotavirus NCDV (G6P[1]); assay: Virucidal effect against bovine rotavirus NCDV (sample pre-reacted with virus, neutral red readout in TF-104 cells); format: cell-based; conditions: Rotavirus A, TF-104 cells, read-out: EC50 (50% concentration from inhibition concentration)
PROPERTY LABEL: EC50 (µM)

>>> print(df.to_string())
                                   compound   val
0  COc1c(CC=C(C)C)c(O)cc2c1CC(c1ccc(O)cc1O)CO2 (stereo not shown) [Compound 4, glyasperin C]  26.2
